Reported GI50 values for the following molecules.
tested on: RPMI-8226; experiment: Antitumor activity against human RPMI8226 cells; type: functional
parameter_measured: GI50 (µM)

smi | unit_text | numeric_readout
O=c1[nH]c2cc(Cl)c(Cl)cc2n2cc3ccccc3c12 | µM | 22.4
Cc1cc2[nH]c(=O)c3c4ccccc4cn3c2cc1C | µM | 6.76
Cc1cccc2c1[nH]c(=O)c1c3ccccc3cn21 | µM | 2
COc1ccc2c(c1)[nH]c(=O)c1c3ccccc3cn21 | µM | 0.0363
O=c1[nH]c2ccccc2n2cc3ccccc3c12 | µM | 3.72

###

system: OVCAR-3; assay: Antitumor activity against human OVCAR-3 cells; type: functional

smi | system | unit_text | inequality_symbol | LC50 (50% net cell death)
Cc1cc2[nH]c(=O)c3c4ccccc4cn3c2cc1C | OVCAR-3 | µM | = | 57.5
Cc1cccc2c1[nH]c(=O)c1c3ccccc3cn21 | OVCAR-3 | µM | > | 100
O=c1[nH]c2ccccc2n2cc3ccccc3c12 | OVCAR-3 | µM | = | 72.4
COc1ccc2c(c1)[nH]c(=O)c1c3ccccc3cn21 | OVCAR-3 | µM | = | 2.88
O=c1[nH]c2cc(Cl)c(Cl)cc2n2cc3ccccc3c12 | OVCAR-3 | µM | = | 57.5

###

tested on: SF-295; experiment: Antitumor activity against human SF295 cells; assay type: functional; conditions: read-out: pTGI (converted)
Each record is given TRUE if its reported TGI is strictly below 30 µM. Records at or above 30 µM are given FALSE.

smi | category
Cc1cccc2c1[nH]c(=O)c1c3ccccc3cn21 | TRUE
O=c1[nH]c2ccccc2n2cc3ccccc3c12 | FALSE
COc1ccc2c(c1)[nH]c(=O)c1c3ccccc3cn21 | TRUE
Cc1cc2[nH]c(=O)c3c4ccccc4cn3c2cc1C | TRUE

###

test system: Malme-3M; assay: Antitumor activity against human MALME3M cells; format: functional; details: read-out: pTGI (converted)
parameter_measured: log10 TGI (log10 of the value in µM)

smi | log10 TGI
Cc1cccc2c1[nH]c(=O)c1c3ccccc3cn21 | 1.39
COc1ccc2c(c1)[nH]c(=O)c1c3ccccc3cn21 | 0.53
O=c1[nH]c2cc(Cl)c(Cl)cc2n2cc3ccccc3c12 | 1.51
O=c1[nH]c2ccccc2n2cc3ccccc3c12 | 1.67
Cc1cc2[nH]c(=O)c3c4ccccc4cn3c2cc1C | 1.57

###

tested on: MCF7; assay: Growth inhibition of human MCF7 cells after 72 hrs by MTT assay; type: functional; conditions: MCF7, 72 h
Reported GI50 values for the following molecules.

smi | GI50 (µM)
Cc1cccc2c1[nH]c(=O)c1c3ccccc3cn21 | 3.7
Cc1cc2[nH]c(=O)c3c4ccccc4cn3c2cc1C | 5.1
O=c1[nH]c2ccccc2n2cc3ccccc3c12 | 6.5
O=c1[nH]c2cc(Cl)c(Cl)cc2n2cc3ccccc3c12 | 3.3
COc1ccc2c(c1)[nH]c(=O)c1c3ccccc3cn21 | 0.17

###

tested on: T47D; experiment: Antitumor activity against human T47D cells; type: functional; conditions: read-out: pTGI (converted)
parameter_measured: TGI (µM)

smi | inequality_symbol | numeric_readout
COc1ccc2c(c1)[nH]c(=O)c1c3ccccc3cn21 | = | 4.57
Cc1cccc2c1[nH]c(=O)c1c3ccccc3cn21 | = | 49
Cc1cc2[nH]c(=O)c3c4ccccc4cn3c2cc1C | = | 50.1
O=c1[nH]c2cc(Cl)c(Cl)cc2n2cc3ccccc3c12 | = | 75.9
O=c1[nH]c2ccccc2n2cc3ccccc3c12 | > | 100
